# System: SN12C renal
# test_summary: NCI tumour cell line growth inhibition, 48 h
Below, each entry is listed with its recorded TGI.

Sample answers from the record:
compound | parameter | value_observed
Cc1oc2c(C)c3oc(=O)cc(C)c3cc2c1CNC(=O)[C@@H]1OCCOCCOCCOCCOCCOC1C(=O)O (some centres undefined) | TGI | > 100 µM
CN(C)CCN(C)CC1COC(C)(C)O1 (centres undefined) | TGI | > 100 µM
O=S(=O)(N/N=C/c1ccc(Cl)c(Cl)c1)c1ccccc1 | TGI | > 100 µM
COc1ccc2c(c1O)C13CCN(C)C(C2)C1CCC1(C3)OCCO1 (centres undefined) | TGI | > 100 µM
CC(=O)O[C@@]12CO[C@@H]1C[C@H](O)[C@@]1(C)C(=O)[C@H](O)C3=C(C)[C@@H](OC(=O)[C@H](O)[C@@H](NC(=O)OC(C)(C)C)c4ccccc4)C[C@@](O)([C@@H](OC(=O)c4ccccc4)[C@H]21)C3(C)C | TGI | > 68.3 µM

input: // map O=C1N(c2ccccc2)C2(c3ccccc3)CC3CCCC13S2 (centres undefined) to recorded TGI (system: SN12C renal)
output: > 100 µM

input: Look up TGI with SN12C renal for this compound: C/C=C1/CN2CCc3c([nH]c4ccccc34)[C@@H]2C[C@@H]1Cc1[nH]ccc2c1[nH]c1cc(=O)ccc12
output: 3.17 µM

input: Which measured TGI belongs to CC(=O)O[C@]12CCCCC1C1(O)C(O)CCCCC12 (some centres undefined) , tested on SN12C renal?
output: > 100 µM

input: API: value(readout= TGI, system= SN12C renal, query= CCOC(=O)c1c(-c2ccccc2)oc(-c2ccccc2)c1C(=O)OCC )
output: > 100 µM

input: Query the reported TGI for SN12C renal; item: CCN(CC)CCCn1cnc2ncccc2c1=O
output: > 100 µM

input: Reported TGI for SN12C renal, given CCN(CC)c1ccc(/C=C2/C[N+](C)(C)C/C(=C/c3ccc(N(CC)CC)cc3)C2=O)cc1 ?
output: 16.4 µM

input: Lookup: TGI / SN12C renal / CSc1nc(NC2OCC(OC(C)=O)C(OC(C)=O)C2OC(C)=O)c(N=C(C)C(C)=O)c(=O)[nH]1 (centres undefined)
output: > 100 µM

input: What is its TGI for SN12C renal? Entry: COC(c1cccc(C(O)(C(F)(F)F)C(F)(F)F)c1)(C(F)(F)F)C(F)(F)F
output: 32.2 µM
